Target: Cellular tumor antigen p53 (Homo sapiens) (UniProt P04637)
Sequence (P04637 whole entry, looked up): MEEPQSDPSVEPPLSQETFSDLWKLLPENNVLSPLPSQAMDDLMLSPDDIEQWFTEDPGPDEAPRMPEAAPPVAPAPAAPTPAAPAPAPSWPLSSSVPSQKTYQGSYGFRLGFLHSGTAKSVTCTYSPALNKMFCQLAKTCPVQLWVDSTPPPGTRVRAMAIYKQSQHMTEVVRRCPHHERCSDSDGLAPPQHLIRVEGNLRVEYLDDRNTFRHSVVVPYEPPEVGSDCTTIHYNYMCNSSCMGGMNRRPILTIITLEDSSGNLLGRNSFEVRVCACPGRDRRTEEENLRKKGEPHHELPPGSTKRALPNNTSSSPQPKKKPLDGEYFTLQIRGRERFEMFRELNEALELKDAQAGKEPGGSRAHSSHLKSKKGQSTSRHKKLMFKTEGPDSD
Assay: Primary qHTS for small molecule compounds that upregulate eGFP-tagged delta133p53alpha (in N-terminal) cells. (AID 2060322);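 note: cells pre-induced with doxycycline then dosed without doxycycline; series mostly up to about 56 µM; 0% = DMSO vehicle and 100% = reference activator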
Settings: NCI-H358 eGFP-delta133p53alpha fluorescence, 24 h; stronger effect = higher value
Inconclusive results are not listed.
Assay Metric: activation (%)
Return type: number; implicit unit %.

As a guide, the following entries are already answered.
CC1=C(CCC(C)CC(=O)O)[C@@]2(C)CCCC(C)(C)C2CC1=O (stereo partly drawn)
-29.5
CC(C)OC(=O)[C@H](C)N[P@](=O)(OC[C@H]1O[C@@H](n2ccc(=O)[nH]c2=O)[C@](C)(F)[C@H]1O)Oc1ccccc1
15
CC1=C2C(=O)C=C(CO[C@@H]3O[C@H](CO)[C@@H](O)[C@H](O)[C@H]3O)[C@@H]2[C@H]2OC(=O)[C@H](C)[C@@H]2[C@@H](O)C1
-7.63
CC(C)(Cc1ccc2ccccc2c1)NC[C@@H](O)COc1cccc(Cl)c1C#N
19.8
CC(=O)O[C@H]1C[C@@H]2CC[C@H]3[C@H]4C[C@H]([N+]5(C)CCCCC5)[C@@H](OC(C)=O)[C@@]4(C)CC[C@@H]3[C@@]2(C)C[C@H]1[N+]1(C)CCCCC1
5.41

Memo: COc1cc(C(=O)OCC2=CCC3C(C(=O)O)=COC(O[C@@H]4O[C@H](CO)[C@@H](O)[C@H](O)[C@H]4O)C23)ccc1O (stereo partly drawn) , reported activation: -9.82

// recorded activation for O=C(NCC(O)CO)c1ccncc1Nc1ccc(I)cc1F (stereo not drawn) : 19.6

Item: `CC1(C)S[C@H]2[C@H](NC(=O)[C@@H](N)c3ccc(O)cc3)C(=O)N2[C@@H]1C(=O)O` | activation: -5.39
